# TARGET_OF_ASSAY: Calcium-dependent protein kinase 4 (Plasmodium falciparum (isolate 3D7))
# Sequence (Q8IBS5 whole entry): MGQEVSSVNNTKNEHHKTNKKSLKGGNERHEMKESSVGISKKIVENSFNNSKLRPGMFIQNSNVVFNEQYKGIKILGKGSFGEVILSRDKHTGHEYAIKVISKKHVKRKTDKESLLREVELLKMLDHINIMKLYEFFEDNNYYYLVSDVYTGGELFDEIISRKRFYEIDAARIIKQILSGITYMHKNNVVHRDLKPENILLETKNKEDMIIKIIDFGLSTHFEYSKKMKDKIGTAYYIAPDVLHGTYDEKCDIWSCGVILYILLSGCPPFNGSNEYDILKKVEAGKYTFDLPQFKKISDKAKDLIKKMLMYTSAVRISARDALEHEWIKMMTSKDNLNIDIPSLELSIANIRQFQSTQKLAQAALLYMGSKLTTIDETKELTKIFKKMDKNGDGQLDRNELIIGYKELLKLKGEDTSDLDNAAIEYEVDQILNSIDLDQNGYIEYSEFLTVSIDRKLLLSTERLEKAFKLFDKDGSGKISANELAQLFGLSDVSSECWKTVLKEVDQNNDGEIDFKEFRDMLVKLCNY
# PROCEDURE_TEXT: MMV: CDPK4 Protein kinase inhibition assay using recombinant PfCDPK4, syntide2 peptide substrate, ATP and KinaseGlo to measure % inhibition at 1 uM MMV box compound.
pIC50: −log10 of the molar value.
Reported pIC50 values follow for various compounds

Below are worked cases with known answers.
OC(CNCC1CCCO1)Cn1c2ccc(Cl)cc2c2cc(Cl)ccc21 (configuration not stated)
< 6.00
OC1CCCCC1C1(NC(=S)Nc2ccccc2)CCCCC1 (configuration not stated)
< 6.00
CCN(CC)CCNc1ncnc2c1[nH]c1ccc(Cl)cc12
< 6.00
COc1ccc(C(=O)NC(c2ccc(Cl)cc2Cl)c2cc(Cl)c3cccnc3c2O)cc1 (configuration not stated)
< 6.00
COC(=O)c1ccc(Cl)c2c1C1C=CCC1C(c1cccc3ccccc13)N2 (configuration not stated)
< 6.00

Exercise: Give me measured pIC50, please, for this compound: O=c1cc(NC2CCN(CCCc3ccccc3)CC2)c2cc(Cl)ccc2o1
Solution: < 6.00

Exercise: For COc1ccc(C(=O)NC(c2ccccc2Cl)c2cc(Cl)c3cccnc3c2O)cc1 (configuration not stated) , write its pIC50.
Solution: < 6.00

Exercise: Look up pIC50 of CC1CC(C)CN(C(=O)c2ccc(Cl)cc2Cl)C1 (configuration not stated) and report it.
Solution: < 6.00

Exercise: # return recorded pIC50 for input CCN(CC)c1cc(C)c2cc(NC(=O)c3cccc(OC)c3)ccc2n1
Solution: < 6.00

Exercise: Could you please provide reported pIC50 for COc1ccc(C(=O)Nc2nonc2-c2ccc(OC)c(OC)c2)cc1Cl ? Thanks!
Solution: < 6.00

* * *

# TARGET_OF_ASSAY: Cdk-related protein kinase 6 (Plasmodium falciparum, UniProt O77239)
# Sequence (O77239 whole entry): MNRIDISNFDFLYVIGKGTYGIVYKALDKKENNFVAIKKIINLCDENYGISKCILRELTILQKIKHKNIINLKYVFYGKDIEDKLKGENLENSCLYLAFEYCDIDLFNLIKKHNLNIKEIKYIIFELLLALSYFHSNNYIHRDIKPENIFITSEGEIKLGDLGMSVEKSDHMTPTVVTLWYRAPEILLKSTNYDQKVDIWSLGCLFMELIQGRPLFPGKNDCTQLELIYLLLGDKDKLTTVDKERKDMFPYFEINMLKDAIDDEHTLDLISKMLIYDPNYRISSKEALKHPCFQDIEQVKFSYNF
# PROCEDURE_TEXT: Final concentrations were 1.5 uM ATP, 5 mM MnCl2, and 15 ug/ml PK6 in a buffer of 100 mM Tris-HCl (pH 7.5). 50 ug/mL MBP was provided as the substrate; 10 uM staurosporine was used as a control inhibitor. Incubation time was 3 hours and 40 minutes.The catalytic activity of each kinase was considered proportional to ATP consumed, as determined from measurements of residual [ATP] with the luciferase-based reagent Kinase-Glo (Promega) following incubation. Luminescence (proportional to residual [ATP]) was measured on the plate readers FLx800 (BioTek Instruments, Winooski, VT, USA) and MicroBeta2.
Collected IC50 values appear next to each entry.

CCOc1ccc(Nc2ccnc3cc(Cl)ccc23)cc1
> 1 µM
Cc1ccc(C)c(Cn2c(N3CCC(C(=O)NCc4cccs4)CC3)nc3ccccc32)c1
> 1 µM
CCCCOc1ccc(C(=O)Nc2cc(C)on2)cc1
> 1 µM
CCOc1ccc(N2C(N)=NC(N)=NC2(C)C)cc1
> 1 µM
COc1ccc2c(c1)C1(Nc3ccccc3-c3nc4ccccc4n31)C(=O)N2 (stereo unspecified)
> 1 µM
COc1ccc(C(=O)C(CCC(CNC(C)(C)C)C(=O)c2ccc(OC)cc2)CNC(C)(C)C)cc1 (stereo unspecified)
> 1 µM
CCOc1cc(Br)c(C(C)NC(=O)c2cccc(OC)c2)cc1OCC (stereo unspecified)
> 1 µM
Cc1ccc(S(=O)(=O)c2c(COC(=O)c3cccc(C)c3)c(-c3ccccc3)nn2C)cc1
> 1 µM
CCCN(CCC)CCCNC(=O)c1cc2c(-c3ccc(OC)c(OC)c3)nn(C)c2s1
> 1 µM
CCCN(CCC)CC(O)COc1ccccc1C(=O)Nc1ccccc1 (stereo unspecified)
> 1 µM

From here, focus on the item given below.
Exercise: Please look at this compound and report its IC50: CN(C)CCCNCc1ccc(-c2ccc(F)c(Cl)c2)o1
Solution: > 1 µM

* * *

The entries below come with measured pIC50 values attached.
# TARGET_OF_ASSAY: Proline--tRNA ligase (Plasmodium falciparum (isolate 3D7), UniProt Q8I5R7)
# PROCEDURE_TEXT: MMV: ProRS recombinant Plasmodium falciparum Prolyl-tRNA-synthetase, assay with yeast tRNA, ATP, and proline and 3 uM MMV malaria box compound, assay read out with kinase glo as % inhibition.
pIC50: −log10 of the molar value.

COCCn1c(C)nc2ccccc2c1=O
< 5.60
CCOC(=O)c1cnc2ccc(CC)cc2c1O
< 5.60
Cc1ccc(CN2CCC(C(=O)Nc3ccc(-c4cc5ccccc5[nH]4)cc3)CC2)o1
< 5.60
O=C(Nc1ccc(-c2nc3cc4ccccc4cc3[nH]2)cc1)c1cccc(Br)c1
< 5.60
CC1(c2ccccc2)Nc2ccccc2-c2nc3ccccc3n21 (stereo unspecified)
< 5.60

Shift focus to the following entry.
Exercise: Entry O=C(NNc1cc(N2CCCC2)nc(N2CCCC2)n1)c1ccccc1 needs its pIC50 filled in; supply it.
Solution: < 5.60

* * *

# pIC50 per record follows
# TARGET_OF_ASSAY: UniProt O96214
# Sequence (O96214 whole entry): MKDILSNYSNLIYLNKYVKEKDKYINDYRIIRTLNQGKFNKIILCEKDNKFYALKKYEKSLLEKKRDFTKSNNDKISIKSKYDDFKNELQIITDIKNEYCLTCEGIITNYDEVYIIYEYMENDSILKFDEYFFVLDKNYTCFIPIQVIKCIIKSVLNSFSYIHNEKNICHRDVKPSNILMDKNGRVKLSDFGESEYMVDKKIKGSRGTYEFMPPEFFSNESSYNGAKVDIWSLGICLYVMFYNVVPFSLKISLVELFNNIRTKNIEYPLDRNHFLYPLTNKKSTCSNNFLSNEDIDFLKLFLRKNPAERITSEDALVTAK
# PROCEDURE_TEXT: Final concentrations were 1 uM ATP, 2 mM DTT, 20 mM MgCl2, 2 mM MnCl2, 0.01% BSA, and 6 ug/ml PK7, in a buffer of 20 mM Tris-HCl (pH 7.5). The enzyme itself was the only substrate present (since autophosphorylation occurs); 100 uM 1NA-PP1 was used as a control inhibitor. Incubation time was 3 hours.
pIC50: −log10 of the molar value.

Here are 3 compounds together with their reported answers.
CCOc1cc2c(cc1OCC)C(c1cc(Cl)c(O)c(OCC)c1)NCC2 (stereo unspecified)
< 6.00
COc1ccc(C2Sc3ccccc3N=C3C2=C(O)c2ccccc23)cc1 (stereo unspecified)
< 6.00
CCCc1c(C)nc2ccccc2c1O
< 6.00

Exercise: Tell us which pIC50 value is on record for CN1C=C(c2ccc3ccccc3n2)C(c2c[nH]c3ccccc23)c2ccccc21 (stereo unspecified)
Solution: < 6.00

Exercise: Note pIC50 for the compound shown: CN(C)CCCNCc1ccc(-c2ccc(F)c(Cl)c2)o1
Solution: < 6.00

Exercise: Provide one value: measured pIC50 of Oc1ccccc1CNCC12CC3CC(CC(C3)C1)C2
Solution: < 6.00

* * *

Quick reference: pIC50 of the listed items.
# TARGET_OF_ASSAY: Proline--tRNA ligase (Plasmodium falciparum (isolate 3D7))
# PROCEDURE_TEXT: MMV: ProRS recombinant Plasmodium falciparum Prolyl-tRNA-synthetase, assay with yeast tRNA, ATP, and proline and 3 uM MMV malaria box compound, assay read out with kinase glo as % inhibition.
pIC50: −log10 of the molar value.

These recorded examples may help you get a feel for the data.
CCOC(=O)C1CCN(C(=O)CN2C(=O)c3ccccc3C2c2c[nH]c3ccccc23)CC1 (stereo not drawn)
< 5.60
COc1ccc(C2N(C)c3ccccc3N2C)cc1
< 5.60
COc1ccccc1N1CCN(C(CNS(=O)(=O)c2ccc(Cl)cc2)c2cccnc2)CC1 (stereo not drawn)
< 5.60
CCC1(C)CC(CCNCc2ccccc2O)(c2ccc(C)cc2)CCO1 (stereo not drawn)
< 5.60
COc1ccc2c(c1)C1(Nc3ccccc3-c3nc4ccccc4n31)C(=O)N2 (stereo not drawn)
< 5.60
CCOc1cc2c(cc1OCC)C(c1cc(C)c(O)c(C)c1)NCC2 (stereo not drawn)
< 5.60

As a next step, examine the compound that follows.
Exercise: Report pIC50, nothing else, for this compound: Cc1cc(NC(=O)c2cccc(C(F)(F)F)c2)n(-c2nc(-c3ccc4c(c3)OCO4)cs2)n1
Solution: < 5.60

* * *

# TARGET_OF_ASSAY: Proline--tRNA ligase (Plasmodium falciparum (isolate 3D7))
# Sequence (Q8I5R7 whole entry): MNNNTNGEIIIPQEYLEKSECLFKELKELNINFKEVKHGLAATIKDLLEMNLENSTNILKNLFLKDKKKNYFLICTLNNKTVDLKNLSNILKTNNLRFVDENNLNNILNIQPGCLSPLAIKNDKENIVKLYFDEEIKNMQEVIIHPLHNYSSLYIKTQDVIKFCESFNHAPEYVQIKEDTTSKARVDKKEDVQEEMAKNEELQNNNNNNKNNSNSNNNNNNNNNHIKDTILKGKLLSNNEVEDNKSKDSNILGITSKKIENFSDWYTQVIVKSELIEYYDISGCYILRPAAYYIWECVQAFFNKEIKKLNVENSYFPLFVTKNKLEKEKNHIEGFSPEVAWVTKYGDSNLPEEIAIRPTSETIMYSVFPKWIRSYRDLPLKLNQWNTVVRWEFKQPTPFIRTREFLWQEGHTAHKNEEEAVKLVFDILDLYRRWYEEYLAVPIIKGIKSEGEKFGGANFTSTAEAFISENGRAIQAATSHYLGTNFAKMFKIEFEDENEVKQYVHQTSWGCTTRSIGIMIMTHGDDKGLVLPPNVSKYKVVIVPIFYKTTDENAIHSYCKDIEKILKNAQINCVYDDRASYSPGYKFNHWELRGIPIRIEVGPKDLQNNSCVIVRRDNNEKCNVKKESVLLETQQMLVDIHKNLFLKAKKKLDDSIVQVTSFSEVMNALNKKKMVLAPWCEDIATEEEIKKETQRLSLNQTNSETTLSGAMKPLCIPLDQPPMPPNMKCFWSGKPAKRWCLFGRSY
# PROCEDURE_TEXT: MMV: ProRS recombinant Plasmodium falciparum Prolyl-tRNA-synthetase, assay with yeast tRNA, ATP, and proline and 3 uM MMV malaria box compound, assay read out with kinase glo as % inhibition.
Reported IC50 values are given for each entry in this list.

Cc1ccc(Cn2c(N3CCC(C(=O)NCc4cccs4)CC3)nc3ccccc32)cc1
> 2500 nM

Exercise: Read off the recorded IC50 for O=C1CC(O)(C(F)(F)C(F)(F)F)Oc2ccccc21 (stereo not given)
Solution: > 2500 nM

Exercise: Output IC50 of Oc1c(CN2CCN(c3ccccc3F)CC2)cc(Br)c2cccnc12
Solution: > 2500 nM

Exercise: Item COc1ccc(Nc2nc(NCc3ccccc3)c3ccccc3n2)cc1 : provide IC50
Solution: > 2500 nM

Exercise: Give IC50 for the following compound: CCCCCC(=O)N1c2ccccc2N=C2CC(c3ccc(OC)c(OC)c3)CC(O)=C2C1c1ccc(C(F)(F)F)cc1 (stereo not given)
Solution: > 2500 nM
